Tested on: hepatitis C replicon
procedure details: hepatitis C replicon EC50 assay
Format: cell-based
condition description: Hepatitis C virus; hepatitis C replicon; read-out: EC50
Assign EC50 to each entry below.

q: Give the measured EC50 of CC(C)n1c(O[C@@H]2C[C@H]3C(=O)N[C@]4(C(=O)NS(=O)(=O)N(C)C)C[C@H]4/C=C\CCCCC[C@H](NC(=O)OC(C)(C)C)C(=O)N3C2)nc2c(-c3nc(-c4cccc(Cl)c4)cs3)cccc21 .
a: 10 to 100 nM

q: Query: EC50; subject: CC(C)n1c(O[C@@H]2C[C@H]3C(=O)N[C@]4(C(=O)NS(=O)(=O)C5(C)CC5)C[C@H]4/C=C\CCCCC[C@H](NC(=O)OC(C)(C)C)C(=O)N3C2)nc2c(-c3nc(-c4cccc(F)c4)cs3)cccc21
a: 10 to 100 nM

q: Value lookup for EC50; key = COc1ccc(Cc2csc(-c3cccc4c3nc(O[C@@H]3C[C@H]5C(=O)N[C@]6(C(=O)NS(=O)(=O)N(C)C)C[C@H]6/C=C\CCCCC[C@H](NC(=O)OC(C)(C)C)C(=O)N5C3)n4C(C)C)n2)cc1
a: < 10 nM

q: Recorded EC50 of Cc1ccc2c(nc(O[C@@H]3C[C@H]4C(=O)N[C@]5(C(=O)NS(=O)(=O)N(C)C)C[C@H]5/C=C\CCCCC[C@H](NC(=O)OC(C)(C)C)C(=O)N4C3)n2C(C)C)c1-c1nc(C2CCCC2)cs1 , please.
a: 10 to 100 nM
